# Test system: intraocular tissue (retinal tissue incl. photoreceptor cell layer, vitreous body) of Zebrafish 7-day-old embryo
# Protocol: Staining of intraocular tissue of Zebrafish fry by exposure to staining liquid, ocular tissue section observed by confocal microscope
# Type: in vivo
# Recorded conditions: Zebrafish 7 dpf fry, 1 μg/mL, 1 hour exposure, fixed ocular section
Metric: Staining ability

A selection of reference data follows.
Compound: Cc1cccc(C)c1Nc1ccc2c3c(cc(=O)n2C)-c2ccccc2C(=O)c13
Readout value: ∘

Compound: CCN1C=C/C(=C\C=C\c2oc3ccccc3[n+]2CC)c2ccccc21.[I-]
Readout value: ++

Compound: O=C(O)CCN1/C(=C/C2=C(Cl)C(=C/c3sc4ccccc4[n+]3CCC(=O)O)/CCC2)Sc2ccccc21.[I-]
Readout value: ++

Compound: CCCCCC(CC)Nc1ccc2c3c(cc(=O)n2C)-c2ccccc2C(=O)c13 (centres unmarked)
Readout value: +++

Compound: Cn1/c(=C/C=C/C2=[N+](CCCS(=O)(=O)[O-])CCS2)oc(=O)/c1=C/C=C1\SCCN1CCCS(=O)(=O)[O-].[Na+]
Readout value: ++

Query: May I ask what Staining ability has been recorded for CCOC(=O)CN1C(=O)/C(=C\c2ccc3c(c2)C2CCCC2N3c2ccccc2)SC1=S (centres unmarked) ?
Reply: ++

Query: Field request: Staining ability | item: O=C(O)C[n+]1c(/C=C/c2ccc3c(c2)C2CCCC2N3c2ccc(C=C(c3ccccc3)c3ccccc3)cc2)oc2ccccc21.[Br-] (centres unmarked)
Reply: ++

Query: Could you tell me which Staining ability is on file for CC/N=c1\cc2oc3cc(NCC)c(C)cc3c(-c3ccccc3C(=O)CC)c-2cc1C ?
Reply: ++
